# system: Carbonic anhydrase 9 (Homo sapiens)
pKi: −log10 of the molar value.

[
  {
    "entry_smiles": "COc1ccc(C(=O)Nc2ccc(-c3cn4c(=O)n(-c5ccccc5)nc4c(N)n3)cc2)cc1",
    "pKi": "< 4.00"
  },
  {
    "entry_smiles": "Nc1nc(-c2ccc(NC(=O)c3cccc(S(N)(=O)=O)c3)cc2)cn2c(=O)n(-c3ccccc3)nc12",
    "pKi": 6.09
  },
  {
    "entry_smiles": "COc1ccc(C(=O)Nc2ccc(-c3cn4c(=O)n(-c5ccccc5)nc4c(N)n3)cc2)cc1OC",
    "pKi": "< 4.00"
  },
  {
    "entry_smiles": "CN(C)c1nc(-c2ccc(S(N)(=O)=O)cc2)cn2c(=O)n(-c3ccccc3)nc12",
    "pKi": 5.17
  },
  {
    "entry_smiles": "Nc1nc(-c2ccc(NC(=O)c3ccc(O)cc3)cc2)cn2c(=O)n(-c3ccccc3)nc12",
    "pKi": "< 4.00"
  },
  {
    "entry_smiles": "CCOC(=O)CNc1ccc(-c2cn3c(=O)n(-c4ccccc4)nc3c(N)n2)cc1",
    "pKi": "< 4.00"
  },
  {
    "entry_smiles": "Nc1nc(-c2ccc(NC(=O)CCC(=O)O)cc2)cn2c(=O)n(-c3ccccc3)nc12",
    "pKi": "< 4.00"
  }
]

---

Protein target, amino acids: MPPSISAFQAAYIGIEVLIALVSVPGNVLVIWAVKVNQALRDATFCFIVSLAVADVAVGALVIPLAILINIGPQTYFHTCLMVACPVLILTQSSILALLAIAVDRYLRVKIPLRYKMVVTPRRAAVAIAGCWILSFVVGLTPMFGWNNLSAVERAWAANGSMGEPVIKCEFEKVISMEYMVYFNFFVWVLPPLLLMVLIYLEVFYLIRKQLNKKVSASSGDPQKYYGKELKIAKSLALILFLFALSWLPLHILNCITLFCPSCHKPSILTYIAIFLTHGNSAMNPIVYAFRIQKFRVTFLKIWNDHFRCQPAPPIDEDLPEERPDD
pKi: −log10 of the molar value.
readout: pKi

[
  {
    "entry_smiles": "COc1ccc(C(=O)Nc2ccc(-c3cn4c(=O)n(-c5ccccc5)nc4c(N)n3)cc2)cc1",
    "experimental_value": 6.38
  },
  {
    "entry_smiles": "Nc1nc(-c2ccc(NC(=O)c3ccc(C(=O)NO)cc3)cc2)cn2c(=O)n(-c3ccccc3)nc12",
    "experimental_value": 6.40
  },
  {
    "entry_smiles": "Nc1nc(-c2ccc(NC(=O)c3ccc(S(N)(=O)=O)cc3)cc2)cn2c(=O)n(-c3ccccc3)nc12",
    "experimental_value": 5.38
  },
  {
    "entry_smiles": "Nc1nc(-c2ccc(NC(=O)CCNCc3ccc(S(N)(=O)=O)cc3)cc2)cn2c(=O)n(-c3ccccc3)nc12",
    "experimental_value": 6.08
  },
  {
    "entry_smiles": "Nc1nc(-c2ccc(OCCNCCc3ccc(S(N)(=O)=O)cc3)cc2)cn2c(=O)n(-c3ccccc3)nc12",
    "experimental_value": 6.55
  },
  {
    "entry_smiles": "Nc1nc(-c2ccc(NC(=O)CCNC(=O)c3ccc(S(N)(=O)=O)cc3)cc2)cn2c(=O)n(-c3ccccc3)nc12",
    "experimental_value": 5.97
  },
  {
    "entry_smiles": "Nc1nc(-c2ccc(OCCNC(=O)c3ccc(S(N)(=O)=O)cc3)cc2)cn2c(=O)n(-c3ccccc3)nc12",
    "experimental_value": 6.38
  },
  {
    "entry_smiles": "Nc1nc(-c2ccc(NCc3ccc(S(N)(=O)=O)cc3)cc2)cn2c(=O)n(-c3ccccc3)nc12",
    "experimental_value": 7.06
  },
  {
    "entry_smiles": "Nc1nc(-c2ccc(NC(=O)CCNC(=O)c3cccc(S(N)(=O)=O)c3)cc2)cn2c(=O)n(-c3ccccc3)nc12",
    "experimental_value": 6.38
  },
  {
    "entry_smiles": "CN(C)c1nc(-c2ccc(S(N)(=O)=O)cc2)cn2c(=O)n(-c3ccccc3)nc12",
    "experimental_value": 6.36
  }
]
